Just for reference, PubChem BioAssay (NCI) is where these values come from.

System: PC-3 prostate
protocol: NCI tumour cell line growth inhibition, 48 h
Listed here are molecules together with their documented TGI.

Look over these answered cases.
{"columns": ["molecule", "TGI"],
 "data": [
  ["COC(=O)c1c(C)[nH]c(/C=C2\\N=C(c3ccc[nH]3)C=C2OC)c1C", "> 100 µM"],
  ["NC(CCC(=O)O)C(=O)N1CCN(c2nc(N3CCCC3)c3nc(Cl)c(NCc4ccccc4)nc3n2)CC1 (configuration not stated)", "26.9 µM"],
  ["COc1cc2c3c(n(CCCCOC(=O)C(Cl)(Cl)Cl)c(=O)c2cc1OC)-c1cc2c(cc1C3=O)OCO2", "> 100 µM"],
  ["C=C[C@H]1C[C@@H]2C[C@@H]3[C@H]4C/C=C\\C(=O)NCCCC5NC(=O)C(=C(O)/C=C/[C@@H]4CC(=O)[C@H]3[C@@H]2[C@H]1C)C5=O (some centres not stated)", "2.76 µM"],
  ["Cn1c2ccccc2c2c3[nH]c(=O)[nH]c(=O)c3c3c4ccccc4n(C)c3c21", "> 100 µM"],
  ["CC(=NNC(=S)Nc1ccc(C)cc1)c1cccc(C(C)=NNC(=S)Nc2ccc(C)cc2)n1", "> 100 µM"]
]}

Then this molecule:
Need TGI of C/C=C(/C)C(=O)O[C@H]1C[C@@H]2[C@@H](O)c3occ(C)c3C[C@]2(C)[C@@H](C)C1 , thanks.
35.2 µM

====

System: U251 CNS
protocol: NCI tumour cell line growth inhibition, 48 h
Listed here are compounds together with their documented TGI.

Look over these answered cases.
{"columns": ["compound", "readout_name", "val"],
 "data": [
  ["O=C(O)[C@@H]1CCCCN1Cc1cc2cc3c(cc2c2cc(OCc4ccccc4)ccc12)OCO3", "TGI", "15.2 µM"],
  ["CCc1c(C)c(C#N)c(=S)n(C2OC(COC(C)=O)C(OC(C)=O)C(OC(C)=O)C2OC(C)=O)c1C (stereo not drawn)", "TGI", "> 100 µM"],
  ["C=CCc1cc(-c2cc(CC=C)c(O)c(CNCCCl)c2)cc(CNCCCl)c1O", "TGI", "30.7 µM"],
  ["CN(C)/C=N/S(=O)(=O)c1nn2c(C=O)c(-c3ccc(Cl)cc3)nc2s1", "TGI", "11.7 µM"],
  ["N#CCC(=O)NC1C2CC3CC(C2)CC1C3 (stereo not drawn)", "TGI", "29.8 µM"],
  ["Cc1ccc(-c2c3nc(c(-c4ccc(C)cc4)c4ccc([nH]4)c(-c4ccc(OCC5COC(C)(C)O5)cc4)c4nc(c(-c5ccc(C)cc5)c5ccc2[nH]5)C=C4)C=C3)cc1 (stereo not drawn)", "TGI", "> 31.6 µM"],
  ["COC(=O)C1=C(C(=O)OC)c2cc(OC)ccc2C(C(=S)N(C)C)S1 (stereo not drawn)", "TGI", "> 100 µM"]
]}

Recall the recorded TGI for CCCCCCCCCCN(CCCCCCCCCC)C(=O)COc1c2cc(C(C)(C)C)cc1Cc1cc(C(C)(C)C)cc(c1OCC(=O)N(CCCCCCCCCC)CCCCCCCCCC)Cc1cc(C(C)(C)C)cc(c1OCC(=O)N(CCCCCCCCCC)CCCCCCCCCC)Cc1cc(C(C)(C)C)cc(c1OCC(=O)N(CCCCCCCCCC)CCCCCCCCCC)C2 with U251 CNS and state it.
23.2 µM
